Settings: in ethanol, 288.15 K
ATTRIBUTE_MEASURED: solubility (mole fraction)
One number for each entry.

For `CN1CCN(C(=O)O[C@H]2c3nccnc3C(=O)N2c2ccc(Cl)cn2)CC1` the compound record lists solubility (mole fraction) as 0.00023

---

Conditions: in n-propyl acetate, 323.15 K
ATTRIBUTE_MEASURED: solubility (mole fraction)
One number for each entry.

For `CN1CCN(C(=O)O[C@H]2c3nccnc3C(=O)N2c2ccc(Cl)cn2)CC1` the compound record lists solubility (mole fraction) as 0.0027

---

Conditions: in methyl acetate, 298.15 K
ATTRIBUTE_MEASURED: solubility (mole fraction)
Give bare numbers.

Note to self: solubility (mole fraction) recorded for `CN1CCN(C(=O)O[C@H]2c3nccnc3C(=O)N2c2ccc(Cl)cn2)CC1` was 0.0025

---

Details: in n-propyl acetate, 308.15 K
ATTRIBUTE_MEASURED: solubility (mole fraction)

Reported solubility (mole fraction) of `CN1CCN(C(=O)O[C@H]2c3nccnc3C(=O)N2c2ccc(Cl)cn2)CC1` : 0.00183

---

Conditions: in n-propanol, 318.15 K
ATTRIBUTE_MEASURED: solubility (mole fraction)

Form field solubility (mole fraction), entry `CN1CCN(C(=O)O[C@H]2c3nccnc3C(=O)N2c2ccc(Cl)cn2)CC1` : 0.00059

---

Settings: in n-propyl acetate, 328.15 K
ATTRIBUTE_MEASURED: solubility (mole fraction)
Give bare numbers.

Field solubility (mole fraction) (entry `CN1CCN(C(=O)O[C@H]2c3nccnc3C(=O)N2c2ccc(Cl)cn2)CC1` ) reads 0.00303

---

Details: in n-propyl acetate, 298.15 K
ATTRIBUTE_MEASURED: solubility (mole fraction)
Answers are plain numbers.

Lookup result for `CN1CCN(C(=O)O[C@H]2c3nccnc3C(=O)N2c2ccc(Cl)cn2)CC1` ; measured solubility (mole fraction): 0.00124

---

Settings: in methyl acetate, 293.15 K
ATTRIBUTE_MEASURED: solubility (mole fraction)
Answers are plain numbers.

The reported value for `CN1CCN(C(=O)O[C@H]2c3nccnc3C(=O)N2c2ccc(Cl)cn2)CC1` in terms of solubility (mole fraction) is 0.00217

---

Conditions: in isopropyl acetate, 313.15 K
ATTRIBUTE_MEASURED: solubility (mole fraction)
Numbers only.

// `CN1CCN(C(=O)O[C@H]2c3nccnc3C(=O)N2c2ccc(Cl)cn2)CC1` : solubility (mole fraction) value = 0.00163

---

Conditions: in isopropyl acetate, 308.15 K
ATTRIBUTE_MEASURED: solubility (mole fraction)

Input `CN1CCN(C(=O)O[C@H]2c3nccnc3C(=O)N2c2ccc(Cl)cn2)CC1` . Output solubility (mole fraction): 0.0014

---

Conditions: in isopropyl acetate, 288.15 K
ATTRIBUTE_MEASURED: solubility (mole fraction)
Answers are plain numbers.

compound `CN1CCN(C(=O)O[C@H]2c3nccnc3C(=O)N2c2ccc(Cl)cn2)CC1` , solubility (mole fraction) observed: 0.000682

---

Conditions: in n-propanol, 328.15 K
ATTRIBUTE_MEASURED: solubility (mole fraction)
One number for each entry.

solubility (mole fraction) in this record for `CN1CCN(C(=O)O[C@H]2c3nccnc3C(=O)N2c2ccc(Cl)cn2)CC1` : 0.00101

---

Settings: in isopropyl acetate, 293.15 K
ATTRIBUTE_MEASURED: solubility (mole fraction)
One number for each entry.

Lab book: solubility (mole fraction) of `CN1CCN(C(=O)O[C@H]2c3nccnc3C(=O)N2c2ccc(Cl)cn2)CC1` noted as 0.000796

---

Details: in n-propyl acetate, 293.15 K
ATTRIBUTE_MEASURED: solubility (mole fraction)
Answers are plain numbers.

Entry under test: `CN1CCN(C(=O)O[C@H]2c3nccnc3C(=O)N2c2ccc(Cl)cn2)CC1` . Its solubility (mole fraction) was 0.00102

---

Details: in methyl acetate, 288.15 K
ATTRIBUTE_MEASURED: solubility (mole fraction)

According to the records, this molecule `CN1CCN(C(=O)O[C@H]2c3nccnc3C(=O)N2c2ccc(Cl)cn2)CC1` displays solubility (mole fraction) of 0.00187
